Entries and their measured relative viability follow.
# Tested on: NCI-H23
# assay-protocol: relative viability (nuclei count vs DMSO), 5 days (fraction); higher = more cells survive
# experimental-context: first compound 0.03162 µM

| compound | relative viability |
| --- | --- |
| Cc1cn(-c2cc(NC(=O)c3ccc(C)c(Nc4nccc(-c5cccnc5)n4)c3)cc(C(F)(F)F)c2)cn1 [Nilotinib] + O=C(c1cc(Cc2n[nH]c(=O)c3ccccc23)ccc1F)N1CCN(C(=O)C2CC2)CC1 [Olaparib] (partner 8 µM) | 0.295 |
| Cc1cn(-c2cc(NC(=O)c3ccc(C)c(Nc4nccc(-c5cccnc5)n4)c3)cc(C(F)(F)F)c2)cn1 [Nilotinib] + CC(=O)Nc1cccc(-n2c(=O)n(C3CC3)c(=O)c3c(Nc4ccc(I)cc4F)n(C)c(=O)c(C)c32)c1 [Trametinib] (partner 0.02 µM) | 0.202 |
| Cc1cn(-c2cc(NC(=O)c3ccc(C)c(Nc4nccc(-c5cccnc5)n4)c3)cc(C(F)(F)F)c2)cn1 [Nilotinib] + CS(=O)(=O)CCNCc1ccc(-c2ccc3ncnc(Nc4ccc(OCc5cccc(F)c5)c(Cl)c4)c3c2)o1 [Lapatinib] (partner 2 µM) | 0.87 |
| Cc1cn(-c2cc(NC(=O)c3ccc(C)c(Nc4nccc(-c5cccnc5)n4)c3)cc(C(F)(F)F)c2)cn1 [Nilotinib] + CC1(C)CCC(c2ccc(Cl)cc2)=C(CN2CCN(c3ccc(C(=O)NS(=O)(=O)c4ccc(N[C@H](CCN5CCOCC5)CSc5ccccc5)c(S(=O)(=O)C(F)(F)F)c4)cc3)CC2)C1 [Navitoclax] (partner 0.5 µM) | 0.605 |

* * *

# Tested on: NCI-H2170
# assay-protocol: relative viability (nuclei count vs DMSO), 5 days (fraction); higher = more cells survive
# experimental-context: first compound 2 µM
Class assignment keyed on relative viability, ranges lower bin: < 0.4; middle bin: ≥ 0.4 and < 0.6; upper bin: ≥ 0.6

| molecule | group |
| --- | --- |
| Cc1csc(=NC2CCCCC2)n1/N=C/c1ccc(O)c(O)c1O [MIM1] + C[C@@H](Oc1cc(-c2cnn(C3CCNCC3)c2)cnc1N)c1c(Cl)ccc(F)c1Cl [Crizotinib] (partner 1 µM) | upper bin |
| CN1CCN(CCOc2cc(OC3CCOCC3)c3c(Nc4c(Cl)ccc5c4OCO5)ncnc3c2)CC1 [Saracatinib] + COc1cccc2cc(-c3nc([C@H]4CC[C@H](C(=O)O)CC4)n4ncnc(N)c34)[nH]c12 [OSI-027] (partner 0.5 µM) | middle bin |
| Cc1csc(=NC2CCCCC2)n1/N=C/c1ccc(O)c(O)c1O [MIM1] + Nc1nc2[nH]cc(CCc3ccc(C(=O)N[C@@H](CCC(=O)O)C(=O)O)cc3)c2c(=O)[nH]1 [Pemetrexed] (partner 0.2 µM) | lower bin |
| CN1CCN(CCOc2cc(OC3CCOCC3)c3c(Nc4c(Cl)ccc5c4OCO5)ncnc3c2)CC1 [Saracatinib] + Nc1nc2[nH]cc(CCc3ccc(C(=O)N[C@@H](CCC(=O)O)C(=O)O)cc3)c2c(=O)[nH]1 [Pemetrexed] (partner 0.2 µM) | lower bin |
| CN1CCN(CCOc2cc(OC3CCOCC3)c3c(Nc4c(Cl)ccc5c4OCO5)ncnc3c2)CC1 [Saracatinib] + CC(=O)Nc1cccc(-n2c(=O)n(C3CC3)c(=O)c3c(Nc4ccc(I)cc4F)n(C)c(=O)c(C)c32)c1 [Trametinib] (partner 0.02 µM) | upper bin |
| Cc1csc(=NC2CCCCC2)n1/N=C/c1ccc(O)c(O)c1O [MIM1] + CS(=O)(=O)CCNCc1ccc(-c2ccc3ncnc(Nc4ccc(OCc5cccc(F)c5)c(Cl)c4)c3c2)o1 [Lapatinib] (partner 2 µM) | lower bin |
| Cc1csc(=NC2CCCCC2)n1/N=C/c1ccc(O)c(O)c1O [MIM1] + N=C(N)NC(=N)NCCc1ccccc1 [Phenformin] (partner 250 µM) | middle bin |
| CN1CCN(CCOc2cc(OC3CCOCC3)c3c(Nc4c(Cl)ccc5c4OCO5)ncnc3c2)CC1 [Saracatinib] + COc1cc2c(Oc3ccc(NC(=O)C4(C(=O)Nc5ccc(F)cc5)CC4)cc3F)ccnc2cc1OCCCN1CCOCC1 [Foretinib] (partner 0.25 µM) | upper bin |
| CN1CCN(CCOc2cc(OC3CCOCC3)c3c(Nc4c(Cl)ccc5c4OCO5)ncnc3c2)CC1 [Saracatinib] + O=C(c1cc(Cc2n[nH]c(=O)c3ccccc23)ccc1F)N1CCN(C(=O)C2CC2)CC1 [Olaparib] (partner 8 µM) | middle bin |
| Cc1csc(=NC2CCCCC2)n1/N=C/c1ccc(O)c(O)c1O [MIM1] + NC(=O)Nc1cc(-c2cccc(F)c2)sc1C(=O)N[C@H]1CCCNC1 [AZD7762] (partner 0.2 µM) | upper bin |
| CN1CCN(CCOc2cc(OC3CCOCC3)c3c(Nc4c(Cl)ccc5c4OCO5)ncnc3c2)CC1 [Saracatinib] + C[C@@H](Oc1cc(-c2cnn(C3CCNCC3)c2)cnc1N)c1c(Cl)ccc(F)c1Cl [Crizotinib] (partner 1 µM) | upper bin |
| CN1CCN(CCOc2cc(OC3CCOCC3)c3c(Nc4c(Cl)ccc5c4OCO5)ncnc3c2)CC1 [Saracatinib] + NC(=O)Nc1cc(-c2cccc(F)c2)sc1C(=O)N[C@H]1CCCNC1 [AZD7762] (partner 0.2 µM) | middle bin |
| CN1CCN(CCOc2cc(OC3CCOCC3)c3c(Nc4c(Cl)ccc5c4OCO5)ncnc3c2)CC1 [Saracatinib] + CCNC(=O)c1noc(-c2cc(C(C)C)c(O)cc2O)c1-c1ccc(CN2CCOCC2)cc1 [Luminespib] (partner 0.01 µM) | lower bin |

* * *

# Tested on: NCI-H3122
# assay-protocol: relative viability (nuclei count vs DMSO), 5 days (fraction); higher = more cells survive
# experimental-context: first compound 0.006325 µM
Entries and their measured relative viability follow.

| compound | relative viability |
| --- | --- |
| CCNC(=O)c1noc(-c2cc(C(C)C)c(O)cc2O)c1-c1ccc(CN2CCOCC2)cc1 [Luminespib] + COc1cccc2cc(-c3nc([C@H]4CC[C@H](C(=O)O)CC4)n4ncnc(N)c34)[nH]c12 [OSI-027] (partner 0.5 µM) | 0.787 |
| CCNC(=O)c1noc(-c2cc(C(C)C)c(O)cc2O)c1-c1ccc(CN2CCOCC2)cc1 [Luminespib] + Nc1nc2[nH]cc(CCc3ccc(C(=O)N[C@@H](CCC(=O)O)C(=O)O)cc3)c2c(=O)[nH]1 [Pemetrexed] (partner 0.2 µM) | 0.182 |

* * *

# Tested on: NCI-H1648
# assay-protocol: relative viability (nuclei count vs DMSO), 5 days (fraction); higher = more cells survive
# experimental-context: first compound 0.2 µM
Entries and their measured relative viability follow.

| molecule | assayed-target | relative viability |
| --- | --- | --- |
| CN1CCN(CCOc2cc(OC3CCOCC3)c3c(Nc4c(Cl)ccc5c4OCO5)ncnc3c2)CC1 [Saracatinib] + CC(=O)c1c(C)c2cnc(Nc3ccc(N4CCNCC4)cn3)nc2n(C2CCCC2)c1=O [Palbociclib] (partner 0.5 µM) | NCI-H1648 | 0.291 |
| Cc1csc(=NC2CCCCC2)n1/N=C/c1ccc(O)c(O)c1O [MIM1] + COc1cccc2cc(-c3nc([C@H]4CC[C@H](C(=O)O)CC4)n4ncnc(N)c34)[nH]c12 [OSI-027] (partner 0.5 µM) | NCI-H1648 | 0.246 |
| CN1CCN(CCOc2cc(OC3CCOCC3)c3c(Nc4c(Cl)ccc5c4OCO5)ncnc3c2)CC1 [Saracatinib] + Nc1nc2[nH]cc(CCc3ccc(C(=O)N[C@@H](CCC(=O)O)C(=O)O)cc3)c2c(=O)[nH]1 [Pemetrexed] (partner 0.2 µM) | NCI-H1648 | 0.766 |
| CN1CCN(CCOc2cc(OC3CCOCC3)c3c(Nc4c(Cl)ccc5c4OCO5)ncnc3c2)CC1 [Saracatinib] + Nc1ncn([C@H]2C[C@H](O)[C@@H](CO)O2)c(=O)n1 [Decitabine] (partner 2 µM) | NCI-H1648 | 0.367 |
| Cc1csc(=NC2CCCCC2)n1/N=C/c1ccc(O)c(O)c1O [MIM1] + Cc1cc(Nc2cc(N3CCN(C)CC3)nc(Sc3ccc(NC(=O)C4CC4)cc3)n2)n[nH]1 [Tozasertib] (partner 0.1 µM) | NCI-H1648 | 0.371 |
| CCNC(=O)c1noc(-c2cc(C(C)C)c(O)cc2O)c1-c1ccc(CN2CCOCC2)cc1 [Luminespib] + CC(=O)Nc1cccc(-n2c(=O)n(C3CC3)c(=O)c3c(Nc4ccc(I)cc4F)n(C)c(=O)c(C)c32)c1 [Trametinib] (partner 0.02 µM) | NCI-H1648 | 0.278 |
| Cc1csc(=NC2CCCCC2)n1/N=C/c1ccc(O)c(O)c1O [MIM1] + O=C(CCCCCCC(=O)Nc1ccccc1)NO [Vorinostat] (partner 1 µM) | NCI-H1648 | 0.431 |
| CCNC(=O)c1noc(-c2cc(C(C)C)c(O)cc2O)c1-c1ccc(CN2CCOCC2)cc1 [Luminespib] + CC(=O)c1c(C)c2cnc(Nc3ccc(N4CCNCC4)cn3)nc2n(C2CCCC2)c1=O [Palbociclib] (partner 0.5 µM) | NCI-H1648 | 0.387 |
| CCNC(=O)c1noc(-c2cc(C(C)C)c(O)cc2O)c1-c1ccc(CN2CCOCC2)cc1 [Luminespib] + Nc1nc2[nH]cc(CCc3ccc(C(=O)N[C@@H](CCC(=O)O)C(=O)O)cc3)c2c(=O)[nH]1 [Pemetrexed] (partner 0.2 µM) | NCI-H1648 | 0.267 |

The values you see were collected from the supplement of paper PMC10307832.
